Below is a list of entries, each paired with its recorded T/C value.
Test system: L1210 leukemia ip in BDF1 mice, survival T/C
Experiment: NCI In Vivo Anticancer Drug Screen. Data for tumor model L1210 Leukemia (intraperitoneal) in B6D2F1 (BDF1) mice
Conditions: endpoint: mean survival time; dose: 100.0 mg/kg/injection; schedule: Q04DX002 (ip); vehicle: saline with Tween-80; higher = longer survival
Toxic doses and inconclusive results are not listed.

Reported T/C of O=P(CCc1ccccc1)(OCCCl)OCCCl : 99 % of control

Reported T/C of OC1C(Br)CC(Br)C1O (stereo not drawn) : 97 % of control

Reported T/C of Nc1nc(N)nc(Cl)n1 : 98 % of control

Reported T/C of O=C(Nc1ccccc1C(F)(F)F)Oc1ccc(Cl)cc1Cc1ccccc1 : 117 % of control

Reported T/C of CSc1ccc(NC(=O)OCC2CC3C=CC2C3)cc1 (stereo not drawn) : 89 % of control

Reported T/C of CC1CN=C(c2ccc3ccccc3c2O)S1 (stereo not drawn) : 103 % of control

Reported T/C of CCCN(CCC)C(=S)CC : 94 % of control

Reported T/C of CC(C)P(=O)(CC(=O)O)c1ccccc1 (stereo not drawn) : 100 % of control

====

Test system: L1210 leukemia ip in BDF1 mice, survival T/C
Experiment: NCI In Vivo Anticancer Drug Screen. Data for tumor model L1210 Leukemia (intraperitoneal) in B6D2F1 (BDF1) mice
Settings: endpoint: mean survival time; dose: 200.0 mg/kg/injection; schedule: Q04DX003 (ip); vehicle: Klucel (hydroxypropylcellulose) (HPC); higher = longer survival
Toxic doses and inconclusive results are not listed.
Below is a list of entries, each paired with its recorded T/C value.

O=C(C#Cc1ccccc1)Nc1ccccc1 :: 97 % of control
O=C1c2ccccc2C(=O)N1Cc1cccc([N+](=O)[O-])c1 :: 97 % of control
CC(=O)OC(C)C(=O)C(Cl)(Cl)Cl (configuration not stated) :: 103 % of control

Record COc1ccc(C=O)c(Br)c1O ; system L1210 leukemia ip in BDF1 mice, survival T/C; T/C = 103 % of control

Record COC1=CC(C)C2CC3OC(O)CC4C(C)=C(OC)C(=O)C(C2(C)C1=O)C34C (configuration not stated) ; system L1210 leukemia ip in BDF1 mice, survival T/C; T/C = 97 % of control

Record COC(OC)c1nc(N)nc(N)c1-c1ccccc1 ; system L1210 leukemia ip in BDF1 mice, survival T/C; T/C = 95 % of control

Record C/C(=C\C(=O)Nc1ncn[nH]1)Nc1ncn[nH]1 ; system L1210 leukemia ip in BDF1 mice, survival T/C; T/C = 106 % of control

Record CCCCNC(=O)NC(C(=O)OCC)C(=O)OCC ; system L1210 leukemia ip in BDF1 mice, survival T/C; T/C = 100 % of control

Record O=C1c2cc([N+](=O)[O-])ccc2-c2cc(Cl)c(Cl)cc21 ; system L1210 leukemia ip in BDF1 mice, survival T/C; T/C = 91 % of control

Record COc1cc(C(=O)N2CCCCCCC2)cc(OC)c1OC ; system L1210 leukemia ip in BDF1 mice, survival T/C; T/C = 102 % of control

Record CCOC(=O)C1(C(=O)OCC)CCC(O)N1C(=O)Cc1ccccc1[N+](=O)[O-] (configuration not stated) ; system L1210 leukemia ip in BDF1 mice, survival T/C; T/C = 103 % of control

Record Cc1ccc(C(CCC#N)OC(C)C)cc1 (configuration not stated) ; system L1210 leukemia ip in BDF1 mice, survival T/C; T/C = 101 % of control

====

Below is a list of entries, each paired with its recorded T/C value.
Tested on: L1210 leukemia ip in BDF1 mice, survival T/C
Assay: NCI In Vivo Anticancer Drug Screen. Data for tumor model L1210 Leukemia (intraperitoneal) in B6D2F1 (BDF1) mice
Details: endpoint: mean survival time; dose: 200.0 mg/kg/injection; schedule: Q01DX001 (sc); vehicle: steriod suspending solution; higher = longer survival
Toxic doses and inconclusive results are not listed.

In the examples that follow, each entry is paired with its recorded T/C.
CC(=O)OC1CCC2(C)C3=C(CCC2C1(C)C)C1(C)CCC(c2ccc(C(C)C)oc2=O)C1(C)CC3 (stereo not given) :: 106 % of control
CC1(C)C(=O)C(O)=C[C@@]2(C)C1=CC[C@H]1[C@@H]3CC[C@H](O)[C@@]3(C)CC[C@@H]12 :: 104 % of control
CC(=O)C1CCC2C3CCC4=CC(=O)CCC4(C)C3(C)C(=O)CC12C (stereo not given) :: 105 % of control
CC12CCC(=O)C=C1CCC1C2CCC2(C)C1CCC2(O)C#CCN(CCCl)CCCl (stereo not given) :: 104 % of control

Turning to the following compound.
Record CC(=O)[C@H]1CC[C@H]2[C@@H]3CCC4=CC(=O)[C@H](C)C[C@]4(C)[C@H]3C(=O)C[C@]12C ; system L1210 leukemia ip in BDF1 mice, survival T/C; T/C = 98 % of control

====

Below is a list of entries, each paired with its recorded T/C value.
Test system: L1210 leukemia ip in BDF1 mice, survival T/C
Assay: NCI In Vivo Anticancer Drug Screen. Data for tumor model L1210 Leukemia (intraperitoneal) in B6D2F1 (BDF1) mice
Details: endpoint: mean survival time; dose: 200.0 mg/kg/injection; schedule: Q01DX001 (ip); vehicle: saline; higher = longer survival
Toxic doses and inconclusive results are not listed.

In the examples that follow, each entry is paired with its recorded T/C.
c1ccc2c(c1)oc1cc3ccncc3cc12 :: 94 % of control
O=C(Nc1nc2ccccc2[nH]1)C(F)(F)F :: 100 % of control

Turning to the following compound.
Reported T/C of O/N=C/c1ccc(O)cc1 : 102 % of control

====

Test system: L1210 leukemia ip in BDF1 mice, survival T/C
Test: NCI In Vivo Anticancer Drug Screen. Data for tumor model L1210 Leukemia (intraperitoneal) in B6D2F1 (BDF1) mice
Details: endpoint: mean survival time; dose: 12.5 mg/kg/injection; schedule: Q01DX009 (ip); vehicle: saline with Tween-80; higher = longer survival
Inconclusive results and toxic doses are left out.
READOUT LABEL: T/C

CCC(=O)C(CCN1CCC(n2c(=O)[nH]c3ccccc32)CC1)(c1ccccc1)c1ccccc1 :: 95 % of control
Cc1ccc([NH-])cc1.Cc1ccc([NH-])cc1.[Cl][Pt+2][Cl] :: 95 % of control
Fc1ccc(N2CCNCC2)cc1 :: 104 % of control
Oc1c(Cl)cc(Cl)c2cccnc12 :: 92 % of control
Cc1cccc(SC(=O)Nc2ccc(Cl)cc2C)c1 :: 91 % of control

Reported T/C of C[P+](C)(c1ccccc1)c1ccccc1 : 97 % of control

Reported T/C of O=c1oc(Cl)cc2oc(=O)n(-c3ccccc3)c(=O)c12 : 98 % of control

Reported T/C of CC(C)CCOc1ccc(N)c([N+](=O)[O-])c1 : 100 % of control

Reported T/C of N#CC1(C#N)C2C=CC(C3CC=CC32)C1(C#N)C#N (centres undefined) : 101 % of control

====

Test system: L1210 leukemia ip in BDF1 mice, survival T/C
Assay: NCI In Vivo Anticancer Drug Screen. Data for tumor model L1210 Leukemia (intraperitoneal) in B6D2F1 (BDF1) mice
Conditions: endpoint: mean survival time; dose: 50.0 mg/kg/injection; schedule: Q04DX003 (ip); vehicle: saline; higher = longer survival
Method: The antitumor activity of compounds was measured in mice bearing transplantable tumors. Survival or tumor size were measured and the results are expressed as the measurement made in the treated group (T) divided by the measurement made in the vehicle treated control group (C). The tumor model used in this assay is L1210 Leukemia (intraperitoneal) in B6D2F1 (BDF1) mice
Toxic doses and inconclusive results are not listed.
READOUT LABEL: T/C

In the examples that follow, each entry is paired with its recorded T/C.
C#CCOC(C(=O)OC1CCN(C)CC1)(c1ccccc1)c1ccccc1 :: 105 % of control
C=C1CC2(CCC3(CC2)CC(=C)C(=O)O3)OC1=O (stereo unspecified) :: 119 % of control
CCCCN(C)c1ncnc2[nH]ncc12 :: 106 % of control
CN1CCN(c2nc3nnnn3c3ccccc23)CC1 :: 101 % of control
CN(C)N=C1CCC(=NN(C)C)CC1 :: 94 % of control
COc1ccc(Cc2nccc3c(OC)c(OC)ccc23)cc1OC :: 93 % of control
CC12CCC(C1)C(C)(C)C2NCCCN1C(=O)c2ccc3c4c(ccc(c24)C1=O)C(=O)N(CCCNC1C2(C)CCC(C2)C1(C)C)C3=O (stereo unspecified) :: 94 % of control
Cc1cccnc1N1CCNC1=O :: 103 % of control
C[N+](C)([O-])CCC=C1c2ccccc2CCc2ccccc21 :: 103 % of control
Nc1ncnc2c1ncn2CCCCCl :: 93 % of control

Reported T/C of CS(=O)(=O)OCCC(=O)N1CCN(C(=O)CCOS(C)(=O)=O)CC1 : 123 % of control

Reported T/C of CC(C)N(C(=O)/C=C/C(=O)N(C(C)C)C(C)C)C(C)C : 95 % of control

Reported T/C of COc1cccc(C(=O)NC[n+]2ccccc2)c1 : 86 % of control

Reported T/C of N#[N+]c1ccccc1-c1nc(N)nc(N)n1 : 103 % of control

Reported T/C of CC(=O)/C(=C/c1ccccc1)N=P(c1ccccc1)(c1ccccc1)c1ccccc1 : 90 % of control

Reported T/C of CC(=O)N(NC(C)C)C(C)C : 98 % of control
